target: Cyclin E1 (Homo sapiens, UniProt P24864+Q96SW2); assay: Cyclin E1 Cellular Degradation Assay (MSD); type: cell-based; parameters: endogenous in cells; host or cells: OVCAR3; details: Cyclin E1 cellular degradation
Sequence (P24864 whole entry): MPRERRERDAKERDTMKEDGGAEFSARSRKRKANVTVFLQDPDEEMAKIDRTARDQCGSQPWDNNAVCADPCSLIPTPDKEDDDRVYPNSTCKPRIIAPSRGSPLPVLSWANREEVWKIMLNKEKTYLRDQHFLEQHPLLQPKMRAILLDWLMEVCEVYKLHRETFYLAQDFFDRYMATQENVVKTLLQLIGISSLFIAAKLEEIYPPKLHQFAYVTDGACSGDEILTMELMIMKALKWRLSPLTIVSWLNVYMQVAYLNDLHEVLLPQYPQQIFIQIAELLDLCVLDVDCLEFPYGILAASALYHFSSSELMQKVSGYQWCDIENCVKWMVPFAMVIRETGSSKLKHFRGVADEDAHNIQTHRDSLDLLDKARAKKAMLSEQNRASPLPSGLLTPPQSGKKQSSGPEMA
Sequence (Q96SW2 whole entry): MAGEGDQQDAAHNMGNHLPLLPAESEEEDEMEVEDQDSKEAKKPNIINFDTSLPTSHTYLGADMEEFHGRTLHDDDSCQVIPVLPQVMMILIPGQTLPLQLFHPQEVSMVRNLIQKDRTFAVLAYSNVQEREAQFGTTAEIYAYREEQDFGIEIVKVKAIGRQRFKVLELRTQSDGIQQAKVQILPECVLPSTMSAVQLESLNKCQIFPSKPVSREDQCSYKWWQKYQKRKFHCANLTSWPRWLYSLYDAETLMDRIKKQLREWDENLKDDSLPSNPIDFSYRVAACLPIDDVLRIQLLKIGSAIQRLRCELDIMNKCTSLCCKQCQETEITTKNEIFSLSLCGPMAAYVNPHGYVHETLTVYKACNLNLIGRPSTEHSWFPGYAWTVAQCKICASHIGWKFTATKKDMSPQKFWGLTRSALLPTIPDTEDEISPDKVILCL
Sequence (Q16531 whole entry partner): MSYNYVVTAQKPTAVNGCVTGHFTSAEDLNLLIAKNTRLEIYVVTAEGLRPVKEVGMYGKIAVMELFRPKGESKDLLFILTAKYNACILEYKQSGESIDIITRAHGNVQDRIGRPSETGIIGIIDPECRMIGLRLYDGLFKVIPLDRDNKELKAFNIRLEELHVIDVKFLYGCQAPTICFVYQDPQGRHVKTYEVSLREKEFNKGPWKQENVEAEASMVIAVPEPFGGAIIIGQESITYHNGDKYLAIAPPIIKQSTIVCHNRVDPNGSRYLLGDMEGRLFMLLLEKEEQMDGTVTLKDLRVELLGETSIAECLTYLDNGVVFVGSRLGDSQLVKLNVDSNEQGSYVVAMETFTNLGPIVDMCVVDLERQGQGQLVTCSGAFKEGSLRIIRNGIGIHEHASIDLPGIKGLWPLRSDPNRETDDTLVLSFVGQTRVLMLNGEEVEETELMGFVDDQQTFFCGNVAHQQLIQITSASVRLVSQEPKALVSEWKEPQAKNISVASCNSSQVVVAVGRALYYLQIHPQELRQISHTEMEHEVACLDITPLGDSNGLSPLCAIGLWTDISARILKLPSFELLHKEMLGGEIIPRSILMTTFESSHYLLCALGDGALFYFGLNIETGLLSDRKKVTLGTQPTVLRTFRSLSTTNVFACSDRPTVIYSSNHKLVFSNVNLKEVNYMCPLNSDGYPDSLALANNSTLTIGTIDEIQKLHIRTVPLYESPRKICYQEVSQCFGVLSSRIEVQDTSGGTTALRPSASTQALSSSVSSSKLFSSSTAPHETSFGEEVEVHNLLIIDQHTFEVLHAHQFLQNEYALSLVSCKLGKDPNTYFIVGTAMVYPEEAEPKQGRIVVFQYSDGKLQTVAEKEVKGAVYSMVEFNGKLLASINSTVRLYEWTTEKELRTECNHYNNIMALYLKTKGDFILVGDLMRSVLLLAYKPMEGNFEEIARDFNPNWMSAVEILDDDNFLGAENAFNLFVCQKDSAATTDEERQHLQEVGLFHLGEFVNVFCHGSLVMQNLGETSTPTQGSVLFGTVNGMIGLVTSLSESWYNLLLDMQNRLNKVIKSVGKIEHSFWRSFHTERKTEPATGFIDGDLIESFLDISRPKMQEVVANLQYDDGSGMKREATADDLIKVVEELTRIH
quantity_kind: log10 of DC50 (log10 of the value in nM)
Please be aware that the numbers have been log10-transformed from DC50 in nM.

Q: Quick check: log10 of DC50 of COc1c(COC(=O)Nc2ccc(Oc3ccc(F)c(F)c3)cc2F)ccc2c1C(=O)N(C1CCC(=O)NC1=O)C2 (centres unmarked) ?
A: 1.85

Q: Quick check: log10 of DC50 of O=C1CCC(N2Cc3ccc(COC(=O)Nc4ccc(Oc5ccc(F)c(F)c5)cc4F)c(O[C@@H]4CCCOC4)c3C2=O)C(=O)N1 (some centres unmarked) ?
A: 1.67

Q: Quick check: log10 of DC50 of O=C1CCC(N2Cc3ccc(COC(=O)Nc4ccc(Oc5cccc(F)c5F)cc4)c(O[C@@H]4CCOC4)c3C2=O)C(=O)N1 (some centres unmarked) ?
A: 2.00

Q: Quick check: log10 of DC50 of COc1c(COC(=O)Nc2ccc(Oc3cccc(C)c3)cc2)ccc2c1C(=O)N(C1CCC(=O)NC1=O)C2 (centres unmarked) ?
A: 1.79

Q: Quick check: log10 of DC50 of COc1ccccc1Oc1ccc(NC(=O)OCc2ccc3c(c2OC)C(=O)N(C2CCC(=O)NC2=O)C3)cc1 (centres unmarked) ?
A: 2.87

Q: Quick check: log10 of DC50 of COc1cc(Oc2ccc(F)cc2F)ccc1NC(=O)OCc1ccc2c(c1OC)C(=O)N(C1CCC(=O)NC1=O)C2 (centres unmarked) ?
A: 1.89

Q: Quick check: log10 of DC50 of COc1c(COC(=O)Nc2ccc(Oc3cccc(F)c3F)cc2)ccc2c1C(=O)N(C1CCC(=O)NC1=O)C2 (centres unmarked) ?
A: 2.24

Q: Quick check: log10 of DC50 of O=C1CCC(N2Cc3ccc(COC(=O)Nc4ccc(Oc5cccc(Cl)c5)cc4)c(O[C@@H]4CCOC4)c3C2=O)C(=O)N1 (some centres unmarked) ?
A: 1.87

Q: Quick check: log10 of DC50 of CC(C)Oc1c(COC(=O)Nc2ccc(Oc3ccc(F)cc3Cl)cc2)ccc2c1C(=O)N(C1CCC(=O)NC1=O)C2 (centres unmarked) ?
A: 2.29

Q: Quick check: log10 of DC50 of O=C1CCC(N2Cc3ccc(COC(=O)Nc4ccc(Oc5ccc(F)cc5F)cc4)c(Oc4ccccc4)c3C2=O)C(=O)N1 (centres unmarked) ?
A: 2.05

Q: Quick check: log10 of DC50 of O=C1CCC(N2Cc3ccc(COC(=O)Nc4ccc(Oc5ccccc5Cl)cc4)c(Oc4ccccc4)c3C2=O)C(=O)N1 (centres unmarked) ?
A: 2.05

Q: Quick check: log10 of DC50 of O=C1CCC(N2Cc3ccc(COC(=O)Nc4ccc(Oc5cccc(F)c5)cc4)c(O[C@@H]4CCCOC4)c3C2=O)C(=O)N1 (some centres unmarked) ?
A: 1.49

Q: Quick check: log10 of DC50 of COc1c(COC(=O)Nc2ccc(Oc3ccc(F)cc3F)cc2C)ccc2c1C(=O)N(C1CCC(=O)NC1=O)C2 (centres unmarked) ?
A: 1.98

Q: Quick check: log10 of DC50 of O=C1CCC(N2Cc3ccc(COC(=O)Nc4ccc(Oc5ccc(F)c(F)c5)cc4)c(OC4CCC4)c3C2=O)C(=O)N1 (centres unmarked) ?
A: 2.15

Q: Quick check: log10 of DC50 of COc1c(COC(=O)Nc2ccc(Oc3cccc4ccccc34)cc2)ccc2c1C(=O)N(C1CCC(=O)NC1=O)C2 (centres unmarked) ?
A: 2.28

Q: Quick check: log10 of DC50 of O=C1CCC(N2Cc3ccc(COC(=O)Nc4ccc(Oc5ccc(F)cc5Cl)cc4)c(Oc4ccccc4)c3C2=O)C(=O)N1 (centres unmarked) ?
A: 2.27

Q: Quick check: log10 of DC50 of COc1c(COC(=O)Nc2ccc(Oc3ccccc3Cl)cc2F)ccc2c1C(=O)N(C1CCC(=O)NC1=O)C2 (centres unmarked) ?
A: 1.84

Q: Quick check: log10 of DC50 of COc1c(COC(=O)Nc2ccc(C(F)(F)c3ccccc3)cc2)ccc2c1C(=O)N(C1CCC(=O)NC1=O)C2 (centres unmarked) ?
A: 3.16

Q: Quick check: log10 of DC50 of COc1c(COC(=O)Nc2ccc(Oc3ccccc3C3CC3)cc2)ccc2c1C(=O)N(C1CCC(=O)NC1=O)C2 (centres unmarked) ?
A: 2.62

Q: Quick check: log10 of DC50 of COc1c(COC(=O)Nc2ccc(Oc3ccc(F)cc3Cl)cc2C)ccc2c1C(=O)N(C1CCC(=O)NC1=O)C2 (centres unmarked) ?
A: 2.17

Q: Quick check: log10 of DC50 of O=C1CCC(N2Cc3ccc(COC(=O)Nc4ccc(Oc5ccc(F)c(F)c5)cc4)c(OC4CCCOCC4)c3C2=O)C(=O)N1 (centres unmarked) ?
A: 1.18

Q: Quick check: log10 of DC50 of COc1c(COC(=O)Nc2ccc(Oc3cccc(Cl)c3)cc2)ccc2c1C(=O)N(C1CCC(=O)NC1=O)C2 (centres unmarked) ?
A: 1.96

Q: Quick check: log10 of DC50 of COc1c(COC(=O)Nc2ccc(Oc3cc(F)c(F)c(F)c3)cc2)ccc2c1C(=O)N(C1CCC(=O)NC1=O)C2 (centres unmarked) ?
A: 2.45

Q: Quick check: log10 of DC50 of O=C1CCC(N2Cc3ccc(COC(=O)Nc4ccc(Oc5ccc(F)c(F)c5)cc4)c(O[C@H]4CCOC4)c3C2=O)C(=O)N1 (some centres unmarked) ?
A: 2.18

Q: Quick check: log10 of DC50 of COc1c(COC(=O)Nc2ccc(Oc3cc(F)c(F)cc3F)cc2C)ccc2c1C(=O)N(C1CCC(=O)NC1=O)C2 (centres unmarked) ?
A: 2.11

Q: Quick check: log10 of DC50 of CC(C)Oc1c(COC(=O)Nc2ccc(Oc3ccccc3F)cc2)ccc2c1C(=O)N(C1CCC(=O)NC1=O)C2 (centres unmarked) ?
A: 1.72
